Readout type: melting point

Here are 2 compounds together with their reported answers.
INSERT INTO measurements (compound, readout_type, result) VALUES
  ('Cc1ccc(CCC[C@H]2C(=O)N(c3ccc(OC(C)(C)C(=O)O)cc3)[C@@H]2c2ccc(C[C@@H]3O[C@H](CO)[C@@H](O)[C@H](O)[C@H]3O)cc2)cc1 (relative stereo) [Compound 21]', 'melting point', '161 to 162 °C'),
  ('O=C1[C@H](CCCc2ccc(F)cc2)[C@H](c2ccc(CC3O[C@H](CO)[C@@H](O)[C@H](O)[C@H]3O)cc2)N1c1ccc(F)cc1 (relative stereo) [Compound 40]', 'melting point', '78 to 80 °C');

As a next step, examine the compound that follows.
-- ask Which melting point reading was recorded for the compound CC(=O)OC[C@H]1O[C@@H](Cc2ccc([C@@H]3[C@@H](CCOc4ccc(F)cc4)C(=O)N3c3ccc(F)cc3)cc2)[C@H](OC(C)=O)[C@@H](OC(C)=O)[C@@H]1OC(C)=O (relative stereo) [Compound 13] ?
-- reply 64 to 66 °C

----------
Readout type: melting point

Here are 3 compounds together with their reported answers.
INSERT INTO measurements (compound, result) VALUES
  ('O=C1[C@H](CC[C@H](O)c2ccc(F)cc2)[C@@H](c2ccc(/C=C/CC[C@@H]3O[C@H](CO)[C@@H](O)[C@H](O)[C@H]3O)cc2)N1c1ccc(F)cc1 [Compound 52]', '79 to 81 °C'),
  ('O=C(CC[C@H]1C(=O)N(c2ccc(F)cc2)[C@@H]1c1ccc([C@@H]2O[C@H](CO)[C@@H](O)[C@H](O)[C@H]2O)cc1)c1ccc(F)cc1 [Compound 34]', '83 to 85 °C'),
  ('O=C1[C@H](CC[C@H](O)c2ccc(F)cc2)[C@@H](c2ccc(CCCCC[C@@H]3O[C@H](CO)[C@@H](O)[C@H](O)[C@H]3O)cc2)N1c1ccc(F)cc1 [Compound 55]', '66 to 68 °C');

-- ask Which melting point reading was recorded for the compound O=C1[C@H](CC[C@H](O)c2ccc(F)cc2)[C@@H](c2ccc(/C=C/C[C@@H]3O[C@H](CO)[C@@H](O)[C@H](O)[C@H]3O)cc2)N1c1ccc(F)cc1 [Compound 47] ?
-- reply 72 to 74 °C

-- ask Next record, please: CCOC(=O)C(C)(C)Oc1ccc(N2C(=O)[C@H](CCCc3ccc(F)cc3)[C@H]2c2ccc(C[C@@H]3O[C@H](CO)[C@@H](O)[C@H](O)[C@H]3O)cc2)cc1 (relative stereo) [Compound 18]
-- reply 73 to 74 °C

-- ask Next record, please: Cc1ccc(N2C(=O)[C@H](CC[C@H](O)c3ccc(F)cc3)[C@H]2c2ccc(CC[C@@H]3O[C@H](CO)[C@@H](O)[C@H](O)[C@H]3O)cc2)cc1 [Compound 57]
-- reply 116 to 118 °C

----------
Measured melting point values are reported for all entries that follow.

INSERT INTO results (compound, readout_type, result) VALUES
  ('O=C(O)c1ccc(N2C(=O)[C@H](CCCc3ccc(F)cc3)[C@H]2c2ccc(C[C@@H]3O[C@H](CO)[C@@H](O)[C@H](O)[C@H]3O)cc2)cc1', 'melting point', '97 to 99 °C'),
  ('O=C1[C@H](CC[C@H](O)c2ccc(F)cc2)[C@@H](c2ccc(/C=C/CCC[C@@H]3O[C@H](CO)[C@@H](O)[C@H](O)[C@H]3O)cc2)N1c1ccc(F)cc1', 'melting point', '69 to 71 °C'),
  ('O=C1[C@H](CCCc2ccc(F)cc2)[C@@H](c2ccc(CC3O[C@H](CO)[C@@H](O)[C@H](O)[C@H]3O)cc2)N1c1ccccc1 (relative stereo)', 'melting point', '84 to 86 °C');

-- ask Which melting point reading was recorded for the compound O=C1[C@H](CC[C@H](O)c2ccc(F)cc2)[C@@H](c2ccc(CC[C@@H]3O[C@H](CO)[C@@H](O)[C@H](O)[C@H]3O)cc2)N1c1ccc(F)cc1 ?
-- reply 153 to 155 °C

-- ask Next record, please: O=C(CC[C@H]1C(=O)N(c2ccccc2)[C@@H]1c1ccc(C[C@@H]2O[C@H](CO)[C@@H](O)[C@H](O)[C@H]2O)cc1)c1ccc(F)cc1
-- reply 104 to 106 °C
